From: ChEMBL document CHEMBL1770130

# Measurement Target: Gamma-secretase
# Method: Inhibition of gamma-secretase in human HeLa cells assessed as inhibition of amyloid beta (1 to 40) production by DELFIA-based immunoassay
# Type: cell-based
Measurement Type: IC50 (nM)
Response body: numeric value in nM, unit text excluded.

Reference set, count: 5
CCC[C@H](NC1COc2ccccc2C1)C(=O)Nc1cn(C(C)(C)CN2CCCC2)cn1 (stereo partly drawn)    93.3
CCC[C@H](NC1Cc2ccccc2C1)C(=O)Nc1cn(C(C)(C)CN2CCCC2)cn1    148
CCC[C@H](NCc1cc(F)cc(F)c1)C(=O)Nc1cn(C(C)(C)CN2CCCC2)cn1    499
CCC[C@H](NC1CCc2ccccc2C1)C(=O)Nc1cn(C(C)(C)CN2CCCC2)cn1 (stereo partly drawn)    85.7
CCC[C@H](NC1CCc2cc(F)cc(F)c2C1)C(=O)Nc1cn(C(C)(C)CN2CCCC2)cn1 (mixture of isomers)    4.1

CCC[C@H](NC1CCc2cc(Cl)ccc2C1)C(=O)Nc1cn(C(C)(C)CN2CCCC2)cn1 (mixture of isomers) yielded IC50 of 8.9

CCC[C@H](NC1CCc2cc(F)ccc2C1)C(=O)Nc1cn(C(C)(C)CN2CCCC2)cn1 (mixture of isomers) yielded IC50 of 19.3

CCC[C@H](NCCc1cc(F)cc(F)c1)C(=O)Nc1cn(C(C)(C)CN2CCCC2)cn1 yielded IC50 of 250
